Hello, the source for this data is patent US20120083522A1, in case you need it.

- TEST NAME: Tolerability in CD1 mice: body and organ weight (Example 25)
- Assay type: in vivo
- EXPERIMENTAL CONDITIONS: 50 mg/kg s.c. twice per week for 6 weeks
In the oligonucleotide strings, read from the 5' end, every base follows the letter of its sugar. An asterisk marks phosphorothioate; unmarked linkages are phosphodiester. Other units and linkages are bracketed, terminal groups are in braces. A string of capitals states the bases alone. e = 2'-O-(2-methoxyethyl) (MOE); [5mC] = 5-methylcytosine; d = 2'-deoxy (DNA)
Reported Body weight (increase over PBS control weight before start of treatment) by item:
OBSERVATION TYPE: Body weight (increase over PBS control weight before start of treatment) (g)

SUBSTANCE: ISIS 416850: gapmer of Table 8 (antisense eT*eG*e[5mC]*eA*e[5mC]*dA*dG*dT*dT*dT*d[5mC]*dT*dG*dG*d[5mC]*eA*eG*eG*e[5mC]*e[5mC])
RECORDED RESULT: 11
//
SUBSTANCE: ISIS 445498: microwalk gapmer of Table 51 (antisense eG*eG*eT*eG*e[5mC]*eA*d[5mC]*dA*dG*dT*dT*dT*d[5mC]*dT*eG*eG*e[5mC]*eA*eG*eG)
RECORDED RESULT: 10
//
SUBSTANCE: ISIS 445509: microwalk gapmer of Table 51 (antisense e[5mC]*eG*eG*eA*e[5mC]*eG*dG*d[5mC]*dA*dT*dT*dG*dG*dT*eG*e[5mC]*eA*e[5mC]*eA*eG)
RECORDED RESULT: 10
//
SUBSTANCE: ISIS 445513: microwalk gapmer of Table 51 (antisense eG*e[5mC]*eA*eG*e[5mC]*eG*dG*dA*d[5mC]*dG*dG*d[5mC]*dA*dT*eT*eG*eG*eT*eG*e[5mC])
RECORDED RESULT: 9
//
SUBSTANCE: ISIS 445503: microwalk gapmer of Table 51 (antisense eG*e[5mC]*eA*eT*eT*eG*dG*dT*dG*d[5mC]*dA*d[5mC]*dA*dG*eT*eT*eT*e[5mC]*eT*eG)
RECORDED RESULT: 9
//
SUBSTANCE: ISIS 445522: microwalk gapmer of Table 51 (antisense eG*e[5mC]*eA*e[5mC]*eA*dG*dT*dT*dT*d[5mC]*dT*dG*dG*e[5mC]*eA*eG*eG*e[5mC])
RECORDED RESULT: 11

----------
- Test system: human Factor XI mRNA
- TEST NAME: Dose-dependent inhibition and IC50 in HepG2 cells, electroporation (Example 15)
- Type: cell-based
- EXPERIMENTAL CONDITIONS: electroporation, 123.47 nM
In the oligonucleotide strings, read from the 5' end, every base follows the letter of its sugar. An asterisk marks phosphorothioate; unmarked linkages are phosphodiester. Other units and linkages are bracketed, terminal groups are in braces. A string of capitals states the bases alone. e = 2'-O-(2-methoxyethyl) (MOE); [5mC] = 5-methylcytosine; d = 2'-deoxy (DNA)

SUBSTANCE: 416857 (antisense e[5mC]*eG*eG*e[5mC]*eA*dT*dT*dG*dG*dT*dG*d[5mC]*dA*d[5mC]*dA*eG*eT*eT*eT*e[5mC]) [compound 416857]
UNIT SPEC: %
percent inhibition of Factor XI mRNA: 2
--
SUBSTANCE: 416849 (antisense eG*e[5mC]*eA*e[5mC]*eA*dG*dT*dT*dT*d[5mC]*dT*dG*dG*d[5mC]*dA*eG*eG*e[5mC]*e[5mC]*eT) [compound 416849]
UNIT SPEC: %
percent inhibition of Factor XI mRNA: 5
--
SUBSTANCE: 445504 (antisense eG*eG*e[5mC]*eA*eT*eT*dG*dG*dT*dG*d[5mC]*dA*d[5mC]*dA*eG*eT*eT*eT*e[5mC]*eT) [compound 445504]
UNIT SPEC: %
percent inhibition of Factor XI mRNA: 8
--
SUBSTANCE: 416858 (antisense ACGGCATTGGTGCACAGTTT; 5-10-5 gapmer, wing sugar chemistry not given here, further chemistry not given here) [compound 416858]
UNIT SPEC: %
percent inhibition of Factor XI mRNA: 0
--
SUBSTANCE: 445532 (antisense e[5mC]*eG*eG*e[5mC]*eA*dT*dT*dG*dG*dT*dG*d[5mC]*dA*e[5mC]*eA*eG*eT*eT) [compound 445532]
UNIT SPEC: %
percent inhibition of Factor XI mRNA: 5
